Test system: Botulinum neurotoxin type F light chain protease (Clostridium botulinum)
Test: Botulinum neurotoxin type F light chain protease inhibition, multiplex microsphere flow cytometry, validation set (AID 588459)
Details: multiplex microsphere protease substrate cleavage assay, at 10 µM
Activity calls are given as the source filed them. How the calls were made is not given here.
Labels: 1 for active, 0 for inactive

>  <Molecule>
N/C(Cc1ccc(Cl)cc1Cl)=N\OC(=O)c1ccc(Br)o1

>  <Tested On>
Botulinum neurotoxin type F light chain protease (Clostridium botulinum)

>  <Assigned Category>
0

$$$$
>  <Molecule>
CC(C)(Sc1cc(C(C)(C)C)c(O)c(C(C)(C)C)c1)Sc1cc(C(C)(C)C)c(O)c(C(C)(C)C)c1

>  <Tested On>
Botulinum neurotoxin type F light chain protease (Clostridium botulinum)

>  <Assigned Category>
0

$$$$
>  <Molecule>
COc1ccc(CN2CCCCC2C(=O)Nc2ccc(OC)c(OCC(C)C)c2)cc1OC (stereo not given)

>  <Tested On>
Botulinum neurotoxin type F light chain protease (Clostridium botulinum)

>  <Assigned Category>
0

$$$$
>  <Molecule>
c1ccc(-c2ccccn2)nc1

>  <Tested On>
Botulinum neurotoxin type F light chain protease (Clostridium botulinum)

>  <Assigned Category>
0

$$$$
>  <Molecule>
O=c1c2ccccc2[se]n1-c1ccccc1

>  <Tested On>
Botulinum neurotoxin type F light chain protease (Clostridium botulinum)

>  <Assigned Category>
1

$$$$
>  <Molecule>
Cc1cc(-c2nn(-c3ccccc3F)cc2CN2CCCC(O)C2)c(C)s1 (stereo not given)

>  <Tested On>
Botulinum neurotoxin type F light chain protease (Clostridium botulinum)

>  <Assigned Category>
0

$$$$
>  <Molecule>
C[C@]12CCC(=O)C=C1CC[C@@H]1[C@@H]2[C@@H](O)C[C@@]2(C)[C@H]1CC[C@]2(O)C(=O)CO

>  <Tested On>
Botulinum neurotoxin type F light chain protease (Clostridium botulinum)

>  <Assigned Category>
0

$$$$
>  <Molecule>
CN(C)CCOC(c1ccccc1)c1ccccc1 (tested in a mixture with another compound)

>  <Tested On>
Botulinum neurotoxin type F light chain protease (Clostridium botulinum)

>  <Assigned Category>
0

$$$$
>  <Molecule>
CC1(C)CC(O)(CNCc2ccc3c(c2)OCO3)CCO1 (stereo not given)

>  <Tested On>
Botulinum neurotoxin type F light chain protease (Clostridium botulinum)

>  <Assigned Category>
0

$$$$
>  <Molecule>
CC(NC(=O)OCc1ccccc1)C(=O)N1CC(O)CC1C(=O)O (stereo not given)

>  <Tested On>
Botulinum neurotoxin type F light chain protease (Clostridium botulinum)

>  <Assigned Category>
0

$$$$
>  <Molecule>
C[C@@H]1O[C@@H](O[C@H]2C[C@@H](O)[C@]3(CO)[C@H]4[C@H](O)C[C@]5(C)[C@@H](C6=CC(=O)OC6)CC[C@]5(O)[C@@H]4CC[C@]3(O)C2)[C@H](O)[C@H](O)[C@H]1O

>  <Tested On>
Botulinum neurotoxin type F light chain protease (Clostridium botulinum)

>  <Assigned Category>
0

$$$$
>  <Molecule>
CC1(C)CC(CNCCC(c2ccc(F)cc2)c2ccco2)CCO1 (stereo not given)

>  <Tested On>
Botulinum neurotoxin type F light chain protease (Clostridium botulinum)

>  <Assigned Category>
0

$$$$
>  <Molecule>
COc1c(C)cc(C(=O)C2CCCN(Cc3ccc(Oc4ncccn4)cc3)C2)cc1C (stereo not given)

>  <Tested On>
Botulinum neurotoxin type F light chain protease (Clostridium botulinum)

>  <Assigned Category>
0

$$$$
>  <Molecule>
O=C(/C=C/c1ccc(Cl)cc1)NCCc1ccccc1

>  <Tested On>
Botulinum neurotoxin type F light chain protease (Clostridium botulinum)

>  <Assigned Category>
0

$$$$
>  <Molecule>
CC(=O)Nc1nc(CCC(C)C)cc2c1c(=O)oc1ccccc12

>  <Tested On>
Botulinum neurotoxin type F light chain protease (Clostridium botulinum)

>  <Assigned Category>
0

$$$$
>  <Molecule>
CC(C)OC(=O)CC12CN3CN(C1)CC(CC(=O)OC(C)C)(C3)C2=O

>  <Tested On>
Botulinum neurotoxin type F light chain protease (Clostridium botulinum)

>  <Assigned Category>
0

$$$$
>  <Molecule>
COc1ccc(C(=O)Nc2ccccc2C(=O)NCCCn2ccnc2)cc1

>  <Tested On>
Botulinum neurotoxin type F light chain protease (Clostridium botulinum)

>  <Assigned Category>
0

$$$$
>  <Molecule>
COc1ccc(C2OC(=O)Cc3cc(OC)c(OC)cc32)cc1 (stereo not given)

>  <Tested On>
Botulinum neurotoxin type F light chain protease (Clostridium botulinum)

>  <Assigned Category>
0

$$$$
>  <Molecule>
CC12CN3CC(C)(CN(C1)C3c1cccs1)C2=O (stereo not given)

>  <Tested On>
Botulinum neurotoxin type F light chain protease (Clostridium botulinum)

>  <Assigned Category>
0

$$$$
>  <Molecule>
CCc1c(C(C)=O)oc2ccc3c(C)cc(=O)oc3c12

>  <Tested On>
Botulinum neurotoxin type F light chain protease (Clostridium botulinum)

>  <Assigned Category>
0

$$$$
>  <Molecule>
Cc1ccc(OCCSc2ncccn2)c(C)c1

>  <Tested On>
Botulinum neurotoxin type F light chain protease (Clostridium botulinum)

>  <Assigned Category>
0

$$$$
>  <Molecule>
CCn1c(C)cc2c(c1=O)C(c1ccccc1)C(C(=O)OC)=C(N)O2 (stereo not given)

>  <Tested On>
Botulinum neurotoxin type F light chain protease (Clostridium botulinum)

>  <Assigned Category>
0

$$$$
>  <Molecule>
Cc1cc(=O)oc2c(CN(C)Cc3ccccc3)c(O)ccc12

>  <Tested On>
Botulinum neurotoxin type F light chain protease (Clostridium botulinum)

>  <Assigned Category>
0

$$$$
>  <Molecule>
CN1[C@@H](CC(=O)c2ccccc2)CCC[C@H]1C[C@H](O)c1ccccc1

>  <Tested On>
Botulinum neurotoxin type F light chain protease (Clostridium botulinum)

>  <Assigned Category>
0

$$$$
>  <Molecule>
CC(=O)Nc1ccc2[nH]c(C)c(CC=C(Cl)Cl)c(=O)c2c1

>  <Tested On>
Botulinum neurotoxin type F light chain protease (Clostridium botulinum)

>  <Assigned Category>
0

$$$$
>  <Molecule>
COC(=O)c1ccccc1NC(=O)NCc1ccccc1

>  <Tested On>
Botulinum neurotoxin type F light chain protease (Clostridium botulinum)

>  <Assigned Category>
0

$$$$
>  <Molecule>
O=C(CCc1ccccc1)Nc1ccccc1C(F)(F)F

>  <Tested On>
Botulinum neurotoxin type F light chain protease (Clostridium botulinum)

>  <Assigned Category>
0

$$$$
>  <Molecule>
Cn1c(=O)[nH]c2nnc(-c3ccc(Cl)c(Cl)c3)nc2c1=O

>  <Tested On>
Botulinum neurotoxin type F light chain protease (Clostridium botulinum)

>  <Assigned Category>
0

$$$$
>  <Molecule>
Cc1ccc(C(=O)NCCNC(=O)c2ccccc2)cc1

>  <Tested On>
Botulinum neurotoxin type F light chain protease (Clostridium botulinum)

>  <Assigned Category>
0

$$$$
>  <Molecule>
O=C(Nc1ccc(N2CCOCC2)cc1)c1ccc(-c2ccccc2[N+](=O)[O-])o1

>  <Tested On>
Botulinum neurotoxin type F light chain protease (Clostridium botulinum)

>  <Assigned Category>
0

$$$$
>  <Molecule>
O=c1c2ccccc2nc2n1CCCN2

>  <Tested On>
Botulinum neurotoxin type F light chain protease (Clostridium botulinum)

>  <Assigned Category>
0

$$$$
>  <Molecule>
C=C(C)c1nc2cc(OC)c(OC)cc2c(=O)o1

>  <Tested On>
Botulinum neurotoxin type F light chain protease (Clostridium botulinum)

>  <Assigned Category>
0

$$$$
>  <Molecule>
CC[C@H](CO)NCCN[C@H](CC)CO

>  <Tested On>
Botulinum neurotoxin type F light chain protease (Clostridium botulinum)

>  <Assigned Category>
0

$$$$
>  <Molecule>
O=C(COc1ccc2ccc(=O)oc2c1)c1ccccc1

>  <Tested On>
Botulinum neurotoxin type F light chain protease (Clostridium botulinum)

>  <Assigned Category>
0

$$$$
>  <Molecule>
COc1cc(Cl)cc2c1Sc1ccccc1/C2=C/CCN(C)C

>  <Tested On>
Botulinum neurotoxin type F light chain protease (Clostridium botulinum)

>  <Assigned Category>
0

$$$$
>  <Molecule>
O=C(O)C(O)c1ccccc1 (stereo not given)

>  <Tested On>
Botulinum neurotoxin type F light chain protease (Clostridium botulinum)

>  <Assigned Category>
0

$$$$
>  <Molecule>
NC(N)=NC(N)=NCCc1ccccc1

>  <Tested On>
Botulinum neurotoxin type F light chain protease (Clostridium botulinum)

>  <Assigned Category>
0

$$$$
>  <Molecule>
COc1ccccc1C1C(C#N)=C(N)Oc2c1oc(CO)cc2=O (stereo not given)

>  <Tested On>
Botulinum neurotoxin type F light chain protease (Clostridium botulinum)

>  <Assigned Category>
0

$$$$
>  <Molecule>
O=c1c(-c2ccccc2)c(O)c2cccc3c2n1CCC3

>  <Tested On>
Botulinum neurotoxin type F light chain protease (Clostridium botulinum)

>  <Assigned Category>
0

$$$$
>  <Molecule>
COC(=O)CN1CC(=O)N(c2ccccc2)C1=S

>  <Tested On>
Botulinum neurotoxin type F light chain protease (Clostridium botulinum)

>  <Assigned Category>
0

$$$$
